Source: PubChem BioAssay AID1362

PROTOCOL_TEXT: growth inhibition of WT strain, primary screen, mitochondrial fusion inhibitor project, WT and mutant strains, chemical genetic (AID 1362)
COND: mitochondrial fusion phenotypic screen, WT strain, growth inhibition; at 10 µM
Among all 190,000 compounds or so, about 4,000 (2.1%) were called active. Cut-off read from the data, not from the text of the source: active = inhibition above about 58%; inactive = the rest, inconclusive results apart; tested in S. cerevisiae. The full list was thinned out, with actives kept by preference.
Pick one: active, inactive

Study these solved cases before continuing.
CCCCc1nc(NCc2ccccc2)c(C#N)c2c1CCCC2 = inactive
CCc1cccc2c(=O)c(C(=O)NCCCOC)c[nH]c12 = inactive
O=S(=O)(NCc1ccccc1)c1ccc(S(=O)(=O)N2CCCC2)cc1 = inactive

Hi, do you know how CCc1cc(CNC(=O)CC2C(=O)NCCN2CC2CCCCC2)on1 (stereo not given) came out in this test?
inactive

Now try O=C(NCc1ccccn1)Nc1ccc(F)cc1 .
inactive

Now try CCNC(=S)N(CCc1c(C)[nH]c2ccc(C)cc12)Cc1ccco1 .
inactive

Now try CCC(C(=O)OCC(=O)Nc1ccccc1-c1ccccc1)c1ccccc1 (stereo not given) .
active

Now try Cc1ccc(NC(=S)NC2CCCC2)cc1 .
inactive

Now try C/C(=N/NC(=O)c1ccc(Br)o1)c1ccc(C)o1 .
inactive
